# procedureText: self-splicing fitness, log relative to wild type (ln ratio); higher = more splicing; Tetrahymena group I intron in knt gene, E. coli kanamycin selection, DiMSum; sequences stand for … in CUCUCU…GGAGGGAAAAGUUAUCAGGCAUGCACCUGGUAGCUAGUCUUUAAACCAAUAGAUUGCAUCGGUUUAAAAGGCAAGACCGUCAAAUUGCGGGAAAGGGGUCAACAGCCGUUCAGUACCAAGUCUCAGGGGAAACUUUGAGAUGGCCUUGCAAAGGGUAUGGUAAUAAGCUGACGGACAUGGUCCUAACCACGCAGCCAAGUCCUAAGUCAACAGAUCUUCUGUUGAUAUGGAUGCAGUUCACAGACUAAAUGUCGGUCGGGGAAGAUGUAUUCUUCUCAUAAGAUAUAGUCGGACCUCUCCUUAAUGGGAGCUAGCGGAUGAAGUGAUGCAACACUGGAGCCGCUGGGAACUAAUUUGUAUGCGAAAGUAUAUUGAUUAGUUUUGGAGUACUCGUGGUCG;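 further: selection with 25 µg/mL kanamycin versus none on LB agar overnight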
# recordedConditions: 30 °C
Would you mind telling me the reported self-splicing fitness (ln) of each entry?
Numbers only.

Here are 3 sequences together with their reported answers.
sequenceEntry	self-splicing fitness (ln)
CUAAAGCAAUAUUACGGCUC	-3.26
ACGGAGCAAUAUUACGGAAC	-3.05
AAUAAGCAAUAUUACGUUCA	-0.963

// query self-splicing fitness (ln) value for entry "UCUCAGCAAUAUUACGACAU"
-2.71
